Hey, just so you know, these numbers are from ChEMBL document CHEMBL1131670.

# Target Desc: Prostaglandin G/H synthase 1 (Ovis aries) (UniProt P05979)
# Sequence (P05979 whole entry): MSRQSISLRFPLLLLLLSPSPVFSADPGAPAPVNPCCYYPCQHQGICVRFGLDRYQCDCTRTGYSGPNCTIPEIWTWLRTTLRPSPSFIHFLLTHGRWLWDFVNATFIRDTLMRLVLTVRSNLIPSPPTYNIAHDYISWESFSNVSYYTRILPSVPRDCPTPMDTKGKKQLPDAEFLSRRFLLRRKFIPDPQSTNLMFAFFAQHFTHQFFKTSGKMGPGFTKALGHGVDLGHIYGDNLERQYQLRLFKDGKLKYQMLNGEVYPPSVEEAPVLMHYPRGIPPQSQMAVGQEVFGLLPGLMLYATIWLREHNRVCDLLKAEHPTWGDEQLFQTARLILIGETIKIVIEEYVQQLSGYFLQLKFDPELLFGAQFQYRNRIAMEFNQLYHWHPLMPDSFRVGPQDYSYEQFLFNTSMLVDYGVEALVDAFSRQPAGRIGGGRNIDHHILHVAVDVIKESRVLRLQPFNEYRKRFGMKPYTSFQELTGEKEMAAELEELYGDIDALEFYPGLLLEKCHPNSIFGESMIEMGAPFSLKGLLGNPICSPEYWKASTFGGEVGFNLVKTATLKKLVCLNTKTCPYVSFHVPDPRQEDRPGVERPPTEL
# Test Name: Inhibitory activity against Cyclooxygenase using sheep seminal vesicle (SSV) enzyme (COX-1) at 10 uM
# Assay type: tissue-based
Readout Label: inhibition (%)

{"Compound": "CCC(=O)N(O)CC#Cc1cc(-c2ccc(C)cc2)n(-c2ccc(OC)cc2)n1", "Quantitative Result": 79}

[a] COc1ccc(-n2nc(C#CCN(O)C(C)=O)cc2-c2ccc(C)cc2)cc1
[b] COc1ccc(-n2nc(C#CC(C(C)C)N(O)C(N)=O)cc2-c2ccc(C)cc2)cc1 (stereo not given)
[c] CCOC(=O)CCC(=O)N(O)C(C)C#Cc1cc(-c2ccc(CC)cc2)n(-c2ccc(OC)cc2)n1 (stereo not given)
[d] COc1ccc(-n2nc(C#CCN(O)C(N)=O)cc2-c2ccc(Cl)cc2)cc1
# input Arrange these compounds by their inhibition, starting with the largest number. Please list each label once, in the requested order.
# output a, b, d, c
